Hey, just so you know, these numbers are from patent US20150361176A1.

# assay.target: T1, cynomolgus TGF-β RII/Fc (cynomolgus)
# T1 construct: extracellular domain; also called Cyno TGFBRII; Cyno TGFbRII
# assay.procedure: SPR Biacore T200, receptor-Fc captured by anti-human IgG, dAb as analyte, 1:1 model
metric.name: Kd (nM)
Numbers only, in nM.

DOM23h-439-35 (VHH, expressed from pC10) VHH: EVQLLESGGGLVQPGGSLRLSCAASGFTFGTDQMWWVRQAPGKGLEFVSRIDSPGGRTYYANSVKGRFTISRDNSKNTLYLQMNSLRAEDTAVYYCAKRQPAGVSGKYVDYWGQGTLVTVSS = 0.0291

Each of the following entries comes with a recorded value; kindly state Kd for each.
1. DOM23h-439-43 (DOM23h-439-25 + C-terminal Alanine + 64R) (VHH, human VH dAb) VHH: EVQLLESGGGLVQPGGSLRLSCAASGFTFGTEQMWWVRQAPGKGLEFVSRIDSPGGRTYYADSVRGRFTISRDNSKNTLYLQMNSLRAEDTAVYYCAKRRPTGVSGTFYDYWGQGTLVTVSS
2. DOM23h-439-41 (DOM23h-439-25 + C-terminal Alanine + 48I) (VHH, human VH dAb) VHH: EVQLLESGGGLVQPGGSLRLSCAASGFTFGTEQMWWVRQAPGKGLEFISRIDSPGGRTYYADSVKGRFTISRDNSKNTLYLQMNSLRAEDTAVYYCAKRRPTGVSGTFYDYWGQGTLVTVSS

### Response
1: 0.149; 2: 0.0333

### Prompt What value of Kd has been recorded for this entry: DOM23h-439-42 (DOM23h-439-25 + C-terminal Alanine + 61N) (VHH, human VH dAb) VHH: EVQLLESGGGLVQPGGSLRLSCAASGFTFGTEQMWWVRQAPGKGLEFVSRIDSPGGRTYYANSVKGRFTISRDNSKNTLYLQMNSLRAEDTAVYYCAKRRPTGVSGTFYDYWGQGTLVTVSS
### Response 0.011
